Reported Mimimum Inhibitory Concentrations, PM (RR -1) values are given for each entry in this list.
- Tested on: PM (RR -1)
- METHOD_SUMMARY: MIC determination
- Type: cell-based, Proteus mirabilis
- EXPERIMENTAL_PARAMETERS: CAMH broth, 20 μM Apo-Transferrin, 37° C., 18 hours
QUANTITY: Mimimum Inhibitory Concentrations, PM (RR -1)

MOLECULE	ENDPOINT_RESULT
CC(C)(O/N=C(\C(=O)N[C@@H]1C(=O)N2C(C(=O)O)=C(C=Cc3ccc(C[N+]4(C)CCc5cc(O)c(O)cc5C4)cc3)CS[C@H]12)c1csc(N)n1)C(=O)O (mixture of isomers) [Compound 407]	≤0.06 microgram/mL
CC(C)(O/N=C(\C(=O)N[C@@H]1C(=O)N2C(C(=O)O)=C(C=Cc3ccc(C[N+]4(C)CCc5c(Cl)c(O)c(O)c(Cl)c5C4)cc3)CS[C@H]12)c1csc(N)n1)C(=O)O (mixture of isomers) [Compound 429]	≤0.06 microgram/mL
